- ASSAY DETAILS: Primary qHTS for inhibitors of nuclear receptor binding SET domain protein 2 (NSD2) in an isogenic RCH-ACV NSD2 p.E1099K mutant (9B) (AID 1645876); further: nearly all actives have a fitted effect of over 70% in size
- EXPERIMENTAL SETUP: RCH-ACV (leukaemia line) NSD2 E1099K (9B) viability, CellTiter-Glo, 72 h; series mostly up to 44.9 µM
Records with an inconclusive call do not appear. Active and inactive are the calls of the source. The call rests on the fitted dose curve; in most records, active means well fitted inhibition curve with a large enough effect; inconclusive means small, poorly fitted or top-dose-only effect; inactive means flat fitted curve, though single readings scatter.
Classes used: active, inactive

# COMPOUND, DISCRETE LABEL
data = [
    ("O=C(O)c1ccc(CN2CCC(CN[C@@H]3C[C@H]3c3ccccc3)CC2)cc1", "inactive"),
    ("Cc1cnc(NC(=O)Nc2cc(Br)c(C)cc2OCC2CNCCO2)cn1 (stereo not drawn)", "active"),
    ("CN(C)C1CCN(C(=O)c2ccc(NC(=O)Nc3ccc(-c4nc(N5CCOCC5)nc(N5CCOCC5)n4)cc3)cc2)CC1", "active"),
    ("COC(=O)C1=CO[C@@H](O[C@@H]2O[C@H](CO)[C@@H](O)[C@H](O)[C@H]2O)[C@@H]2C(CO)=CC[C@]12O", "inactive"),
    ("CC(C)C(N)C(=O)OCCOCn1cnc2c(=O)[nH]c(N)nc21 (stereo not drawn)", "inactive"),
    ("CC(C)S(=O)(=O)N[C@H]1CCOC[C@@H]1c1ccc(-c2ccc(C#N)s2)cc1", "inactive"),
    ("CC1=C(COC2OC(CO)C(O)C(O)C2O)C(C(CO)C(=O)O)CC1 (stereo not drawn)", "inactive"),
    ("C[C@@H]1C(=O)O[C@H](C)[C@H]1CC(=O)[C@](C)(O)[C@H]1CC[C@@]2(O)C3=CC(=O)[C@@H]4C[C@@H](O)[C@@H](O)C[C@]4(C)C3CC[C@]12C (stereo partly drawn)", "inactive"),
]

---

- Test system: Zika virus NS2B-NS3 protease (unlinked complex)
- ASSAY DETAILS: Primary screen GU Rhodamine qHTS for Zika virus inhibitors: Unlinked NS2B-NS3 protease assay (AID 1347159); further: nearly all actives have a fitted effect of over 60% in size
- EXPERIMENTAL SETUP: Recombinant ZIKV NS2B-NS3 protease, Rhodamine110 substrate fluorescence; series mostly up to 107 µM
- From the text: Avindra Nath, Ph.D., National Institute of Neurological Disorders and Stroke (NINDS), Bethesda, MD Radhakrishnan Padmanabhan, Ph.D., Georgetown University (GU), Washington D.C. Zika Virus causes congenital defects, including microcephaly and is associated with Guillain-Barre syndrome, eningoencephalitis and myelitis in infected adult. […]
Records with an inconclusive call do not appear. The source made the active and inactive calls. Calls come from the whole dose curve; as a rule, active = well fitted inhibition curve with a large enough effect; inconclusive = small, poorly fitted or top-dose-only effect; inactive = no such curve, though single readings can be large or run the other way.
Possible outcomes: active, inactive

# COMPOUND, DISCRETE LABEL
data = [
    ("CC1(C(=O)O)CCCC2(C)C3=CCC4CC3(CCC12)CC4CO (stereo not drawn)", "inactive"),
    ("COC(=O)N(C)c1c(N)nc(-c2nn(Cc3ccccc3F)c3ncccc23)nc1N", "inactive"),
    ("C[C@H](C(=O)NC1CCCC1)N(C(=O)Cn1nnc(-c2ccc3c(c2)OCO3)n1)C1CCCCC1", "inactive"),
    ("CC1=C(C(=O)O[C@@H]2O[C@H](COC3OCC(O)C(O)C3O)[C@@H](O)[C@H](O)[C@H]2O)C(C)(C)CCC1 (stereo partly drawn)", "inactive"),
    ("C=C(C)C1CCC(C)C12CC(O)C1(C)OC1C2OC(=O)C(N)CCC(=O)O (stereo not drawn)", "inactive"),
    ("Cc1cc(NC(=O)Nc2ccc(F)c(F)c2)n(-c2ccccc2)n1", "inactive"),
    ("C=C1CCC2C(C)(C)C(O)CCC2(C)C1CCC(C)CCO (stereo not drawn)", "active"),
    ("CC1(C)CC[C@]2(C(=O)O)CC[C@]3(C)C(=CCC4[C@@]5(C)CC[C@H](O[C@@H]6O[C@H](C(=O)O)[C@@H](O[C@@H]7OC[C@@H](O)[C@H](O)[C@H]7O)[C@H](O)[C@H]6O)C(C)(C)C5CC[C@]43C)C2C1O (stereo partly drawn)", "inactive"),
]
